Target: Dimer of Gag-Pol polyprotein [489-587] (Human immunodeficiency virus 1)
Construct: 489-587
Test: Protease Inhibition Assay
Conditions: pH 5.5; 30 °C
property label: IC50

CCC(C)C(NC(=O)[C@H](Cc1ccccc1)C[C@H](O)[C@H](Cc1ccccc1)NC(=O)OC(C)(C)C)C(=O)NCc1nc2ccccc2[nH]1 (some centres not stated) ... 0.07 nM

Consider the record given below.
Query: Suppose we examine the compound CCC(C)C(NC(=O)[C@H](C/C=C/c1ccccc1)C[C@H](O)[C@H](Cc1ccccc1)NC(=O)OC(C)(C)C)C(=O)NCc1nc2ccccc2[nH]1 (some centres not stated) ; what IC50 value has been reported?
Response: 0.03 nM
